SYSTEM_TESTED: Inward rectifier potassium channel 2 (Mus musculus) (UniProt P35561)
Sequence (P35561 whole entry, looked up): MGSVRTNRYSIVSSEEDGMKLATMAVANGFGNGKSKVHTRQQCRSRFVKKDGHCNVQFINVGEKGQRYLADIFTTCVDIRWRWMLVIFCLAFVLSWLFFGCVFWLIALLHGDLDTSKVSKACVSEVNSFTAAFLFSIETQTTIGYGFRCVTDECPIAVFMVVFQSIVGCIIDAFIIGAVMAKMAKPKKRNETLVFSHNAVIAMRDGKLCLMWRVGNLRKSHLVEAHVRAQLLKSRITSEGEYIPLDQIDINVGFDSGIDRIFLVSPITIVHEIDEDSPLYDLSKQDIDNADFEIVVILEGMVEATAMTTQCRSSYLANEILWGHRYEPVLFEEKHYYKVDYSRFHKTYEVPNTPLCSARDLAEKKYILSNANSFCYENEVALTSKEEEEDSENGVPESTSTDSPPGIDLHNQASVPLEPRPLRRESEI
PROTOCOL_NOTES: Kir2.1 potassium current inhibition – cell-based, secondary, automated electrophysiology, Kir2.1 inhibitor project (AID 463252)
COND: Kir2.1 cells, automated patch-clamp current inhibition, at 25 µM
Some of the results follow. The source made the active and inactive calls. No rule for the calls is given here.
// allowed return values: active, inactive

Which result was noted for this compound in the test: CC(NCc1ccccc1OC1CCCC1)c1ccccc1 (stereo not drawn)
active

Please share the test call associated with `Cc1cc(C)nc(SCc2nnc(SCC(=O)OC3CCCCC3)o2)n1` .
active

I'd appreciate the recorded outcome for `O=C(CCCN1CCc2[nH]c3ccc(F)cc3c2C1)c1ccc(F)cc1` from this test.
active

What did the test return for `Cc1ccc(Nc2c3c(nc4ccccc24)CCC3)cc1` ?
active

Per the assay record, what outcome was assigned to `Cc1nnc(SCc2ccc(C(=O)c3ccc(Cl)cc3)o2)n1-c1ccccc1` ?
active

What did the test return for C/C=C(/C)C(=O)OC1Cc2c(ccc3ccc(=O)oc23)OC1(C)C (stereo not drawn) ?
inactive

Recorded test outcome, item `Cc1ccccc1C(=O)NCCN=C1NS(=O)(=O)c2ccccc21`
inactive

Please let me know the test result on file for `C=CCc1cc(S(=O)(=O)c2ccc(O)c(CC=C)c2)ccc1O` .
inactive

---

Tested on: TRPC4 beta (transient receptor potential cation channel C4), mouse
PROTOCOL_NOTES: TRPC4 cation channel opening, retest – cell-based, Fluo4 calcium, HEK293 TRPC4beta/mu-opioid, duplicates, 10 µM, confirmation (AID 2426)
COND: Fluo4 calcium fluorescence, at 10 µM
Activity calls are given as the source filed them.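 How the source made its calls: active means fluorescence ratio normalized to control raised more than 50% in primary screen plus both repeat runs; inactive means the rest.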
Respond with a class label; see Yes for active, No for inactive

Write down the call the test reported for this molecule. Item: `COc1ccc(-c2nc(CSCC(=O)NC3CCN(Cc4ccccc4)CC3)c(C)o2)cc1OC`
Yes

How did this test come out for CCC1(C(=O)c2ccccc2)C(c2ccc([N+](=O)[O-])cc2)C1(C(=O)OC)C(=O)OC (stereo not given) ?
No

Can you look up the reported call for `c1ccc(NC(=NCc2ccco2)c2ccccc2)cc1` for me?
No

For COc1ccc(C(CNC(=O)COc2ccccc2OC)N(C)C)cc1OC (stereo not given) , which call appears in the assay record?
Yes

Query: recorded result category for Cc1ccc(S(=O)(=O)NC(C(=O)Oc2cc3oc(=O)cc(C)c3cc2Cl)C(C)C)cc1 (stereo not given) in this test
No

---

Tested on: TRPC4 beta (transient receptor potential cation channel C4), mouse
PROTOCOL_NOTES: potentiation of DAMGO EC20 TRPC4 response – cell-based, Fluo-4, HEK293 TRPC4beta/mu-opioid, confirmation (AID 2555)
COND: DAMGO EC20, Fluo-4 calcium flux, at 10 µM
Calls of active or inactive are those of the source.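 Rule for the calls: active = primary screen hit whose calcium fluorescence ratio, in both repeats, exceeds the weak agonist control mean by 3 SD; inactive = the rest.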
Pick one: active, inactive

For `COc1ccc(C(=O)c2no[n+]([O-])c2C(=O)c2ccc(OC)cc2)cc1` , what call appears in the results of this test?
active

Which result was noted for this compound in the test: `CCOC(=O)C1=C(NC(=S)NC(=O)c2ccccc2)c2ccccc2CC1(C)C`
active

How was `C=C(C)COc1ccc(-c2[nH]ncc2Oc2ccc(OC)cc2)c(O)c1` classified in this test?
inactive

Entry `CCCn1c(=O)c2ccccc2n2c(SCCOc3ccc(C)cc3)nnc12` : call = ?
inactive

// param item: `COc1ccccc1CCc1nnc(CCC(=O)NCCCOc2cccnc2)o1` ; yields the recorded call
inactive

Per the assay record, what outcome was assigned to C=CCN1CCN(C(c2cccc(OC)c2OC)c2nnnn2CCC(C)C)CC1 (configuration not stated) ?
inactive

Hi, do you know how `COc1ccccc1CNCc1ccc(OC)c2ccccc12` came out in this test?
inactive

Given `CCCCc1nc(N2CCOCC2)c(C#N)c2c1CCCC2` , state the outcome it received in this test.
inactive

# outcome recorded in this test, key = CC(=O)N1N=C(c2c(-c3ccccc3)c3cc(C)ccc3[nH]c2=O)CC1c1ccco1 (configuration not stated)
active

Assay result, entry `COc1ccc(C(=O)N2CCN(c3c(C)cccc3C)CC2)cc1OC` — outcome?
inactive

# outcome recorded in this test, key = `O=C(CN1CCCN(S(=O)(=O)c2ccc(F)cc2)CC1)Nc1ccccc1Br`
inactive

Name the outcome recorded for `CCOC(=O)C1(CCOc2ccccc2)CCN(Cc2cccn2-c2ncccn2)CC1` in the assay.
inactive

What did this assay record as the result for `CCOC(=O)C1(CCOC)CCN(Cc2ccccc2-c2ccco2)CC1` ?
inactive

Call for entry `Cc1ccccc1-n1c(=O)c2c(n3cnnc13)-c1ccccc1CC21CCCCC1` :
inactive

Look up the recorded call for `CCOC(=O)COc1cc(-n2c(=S)[nH]c3ccccc3c2=O)c(Cl)cc1Cl` in this test.
active

Called result for `COc1cc(CN2CCC(CO)(CCOc3ccccc3)CC2)cc(OC)c1`
inactive

What did this assay record as the result for `CCC(=O)N1CCc2cc(Br)cc(S(=O)(=O)NCCCN(CC)Cc3ccccc3)c21` ?
inactive

Assay result, entry `Cc1ccc(Cn2c(Cc3ccccc3)nc3ccccc32)cc1` — outcome?
inactive

Record request — test call for N#Cc1c(NC(=O)C2CC(Cl)=CCC2C(=O)O)sc2c1CCCCC2 (configuration not stated)
inactive

Given `C=CCSc1nnc2n(-c3ccccc3OC)c(=O)c3c4c(sc3n12)CCC4` , state the outcome it received in this test.
inactive

Answer briefly: the call reported for CC1=C(C(=O)NCc2ccccc2)C(c2cc(Br)cc(Br)c2OC(C)C)NC(=O)N1 (configuration not stated) in this assay.
active

Per the records of this test, what outcome belongs to Cc1ccc(N(C(=O)c2snc(C(N)=O)c2N)C(C(=O)NCC2CCCO2)c2ccc(C)o2)c(C)c1 (configuration not stated) ?
inactive
